biological target: human FPR1 (Homo sapiens); assay: Ca2+ mobilization
Sequence (P21462 whole entry): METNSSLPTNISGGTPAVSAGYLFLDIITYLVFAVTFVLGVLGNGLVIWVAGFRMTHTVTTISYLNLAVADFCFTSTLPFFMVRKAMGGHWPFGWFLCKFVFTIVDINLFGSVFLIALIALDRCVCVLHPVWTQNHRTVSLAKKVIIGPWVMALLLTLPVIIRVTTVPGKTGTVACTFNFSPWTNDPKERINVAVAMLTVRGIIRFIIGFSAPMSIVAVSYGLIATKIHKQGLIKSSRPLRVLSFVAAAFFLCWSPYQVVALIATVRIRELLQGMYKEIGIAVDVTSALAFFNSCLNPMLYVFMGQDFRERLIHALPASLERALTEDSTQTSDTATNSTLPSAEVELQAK
parameter: EC50 (nM)
Just the number in nM, nothing appended.

Ask | For the compound O=C(Nc1ccc(Br)cc1)N[C@H](Cc1ccc(O)cc1)C(=O)NC1CCCCNC1=O (stereo partly shown) , what EC50 is on record?
Reply | 820

// data source = paper PMC5909973
